System: PC-3 prostate
Experiment: NCI-60 one-dose screen, 48 h (100 = growth as untreated, 0 = no growth, -100 = all killed)
Settings: 10 µM unless noted
Compounds without any hit were thinned out: in the full panel of roughly 83,000, 20% have a hit.
Mark condition met for growth under 90%, condition not met if at or over.

molecule=Cc1ccc(-n2c(=S)[nH]c3sc4c(c3c2=O)CCC(=O)C4)cc1 answer_label="condition met"
molecule=CC[C@]12C=CCN3CC[C@@]4(c5cc(NC(=O)CCC(=O)OCc6cn(Cc7ccc(F)cc7)nn6)c(OC)cc5N(C)[C@H]4[C@@](O)(C(=O)OC)[C@@H]1OC(C)=O)[C@@H]32 answer_label="condition not met"
molecule="Cc1ccc(C(C(N)=O)C(C(N)=O)c2ccccc2)cc1 (stereo not given)" answer_label="condition not met"
molecule="COC(C(=O)[C@@H](O)[C@@H](C)O)[C@@H]1Cc2cc3cc(O[C@H]4C[C@@H](O[C@H]5C[C@@H](O)[C@H](O)C(C)O5)[C@H](O)C(C)O4)c(C)c(O)c3c(O)c2C(=O)[C@H]1O[C@H]1C[C@@H](O[C@H]2C[C@@H](O[C@H]3C[C@@H](O)[C@H](OC)C(C)O3)[C@@H](O)C(C)O2)[C@H](O)C(C)O1 (stereo not given in full)" answer_label="condition met"
molecule=Cc1ccc(-c2nn(-c3ccccc3)cc2C=C2C(=O)ON=C2C(C)C)cc1 answer_label="condition met"
molecule=N#Cc1c(-c2cccs2)cc(-c2cccnc2)[nH]c1=O answer_label="condition not met"
molecule=Cc1cc(=O)[nH]c2c(C#N)cnn12 answer_label="condition not met"
molecule=Cc1cccc(Cl)c1NC(=O)c1ccc2nc(NC(=O)NCCN(C)C)sc2c1 answer_label="condition met"
molecule=CCOc1nc(-c2ccccc2)cc2c(O)c(C(=O)NN)[nH]c(=O)c12 answer_label="condition met"
molecule=CCSc1nc(NC)c2cc(-c3ccc(C(F)(F)F)cc3)ccc2n1 answer_label="condition not met"

###

Tested on: CCRF-CEM leukemia
Test: NCI-60 one-dose screen, 48 h
Details: 10 µM unless noted
Protocol: Growth inhibition of the CCRF-CEM human tumor cell line is measured as a screen for anti-cancer activity. Cells are grown in 96 well plates and exposed to the test compound for 48 hours. Compounds are tested at a single concentration, which is 10^-5 M for most compounds. The reported endpoint is percent growth (GI% or GIPRCNT), where numbers from 0 - 100% represent growth inhibition, and numbers from -100% - 0 represent cell death. For example, a value of 40 represents 60% growth inhibition. […]
Compounds without any hit were thinned out: in the full panel of roughly 83,000, 20% have a hit. The source made the active and inactive calls. Rule for the calls: active = growth percent below 10; inactive = the rest.
Labels: active, inactive

compound=N#Cc1c(-c2ccccc2)cc(-c2ccccc2)n(CCCCCC(=O)Nc2ccccc2N)c1=O answer_label=active
compound=CCOC(=O)c1nc(Nc2ccc(NC(=O)Nc3ccc(F)cc3)cc2)c2ccccc2n1 answer_label=inactive
compound=O=C1Nc2ccc(I)cc2C1=O answer_label=inactive
compound=N=C(N)c1ccc(-c2ccc(-c3ccc(Cl)cc3)s2)nc1 answer_label=active
compound=CCCCCC(=O)OCC(=O)O[C@@H]1C[C@]2(C(C)C)O[C@@]1(C)[C@@H]1CC[C@@H](C)[C@H]1[C@@H]2OC(=O)/C=C/c1ccccc1 answer_label=inactive
compound=CCN(c1ccc(Cl)cc1)c1nc(-c2ccc([N+](=O)[O-])cc2)cs1 answer_label=inactive
compound=Cc1nc2ncnc(Cl)c2[nH]1 answer_label=inactive
compound=Cc1ccc(/C=N/Nc2nc(Nc3ccccc3)nc(-n3nc(C)cc3C)n2)cc1 answer_label=inactive
compound=COC(=O)[C@H]1CCCN1C[C@@H](O)CN1C(=O)/C(=C\c2cc(OC)c(OC)c(OC)c2)c2ccccc21 answer_label=inactive
compound="CCO/C=N/C1=C(C#N)C(c2ccc(OC)cc2)c2sc3c(F)cccc3c2O1 (configuration not stated)" answer_label=inactive
compound=Fc1ccc(-c2nn(-c3ccccc3)cc2-c2nc3ccccc3o2)cc1 answer_label=inactive
compound=C=C(C)[C@@H]1CC[C@]2(C(=O)O)CC[C@]3(C)[C@H](CC[C@@H]4[C@@]5(C)C[C@@H](Cc6cn(CCO[C@@H]7O[C@H](COC(C)=O)[C@H](OC(C)=O)[C@H](OC(C)=O)[C@H]7OC(C)=O)nn6)[C@H](O)C(C)(C)[C@@H]5CC[C@]43C)[C@@H]12 answer_label=inactive
compound=Cc1c(-c2nc3ccc(F)cc3c(=O)[nH]2)c2ccccc2n1C answer_label=inactive
compound=COC(=O)CCC(=O)C(=O)OC answer_label=active
compound=O=Cc1ccc([N+](=O)[O-])s1 answer_label=inactive
compound=O=C(CSc1nc(-c2ccccc2)[nH]c1S(=O)(=O)c1ccccc1)NC1CC1 answer_label=inactive
compound=COc1ccccc1NC(=O)Cn1cc(CN2CCN(c3ccnc4cc(Cl)ccc34)CC2)nn1 answer_label=active
compound="CSc1nnc(-c2cnn3c2NC(c2ccccc2)C3)n1-c1ccc(C(F)(F)F)cc1 (configuration not stated)" answer_label=inactive
compound=Cn1ccnc1C(=O)C(=O)Nc1ccc(CC(=O)Nc2ccccc2)cc1 answer_label=inactive
compound=CC1(C)c2[nH]c3ccccc3c2C[C@]2(C)[C@H]3CC=C4[C@@H]5C[C@@](C)(C(N)=O)CC[C@]5(C)CC[C@@]4(C)[C@]3(C)CC[C@@H]12 answer_label=inactive
compound=Cc1ccc(-c2nn(-c3ccccc3)cc2C=C2C(=O)ON=C2C(C)C)cc1 answer_label=active
compound="COc1cc2c(c(OC)c1OC)C(=O)CC(c1cccc(NC(=O)c3ccc(Br)cc3)c1)O2 (configuration not stated)" answer_label=active
compound=CCOC(=O)c1cn2ncnc(Oc3ccc(NC(=O)NC4CCCCC4)c(Cl)c3)c2c1C answer_label=inactive
compound=CC(C)=CCC[C@](C)(O)[C@H]1CC[C@]2(C)[C@@H]1CC[C@@H]1[C@@]3(C)Cc4nccnc4C(C)(C)[C@@H]3CC[C@]12C answer_label=inactive
compound=COC(=O)c1cc(-c2ccc(S(C)(=O)=O)cc2)[nH]c1N/N=C/c1c(Cl)cccc1Cl answer_label=active
compound=O=S(=O)(NCCCNc1nccc(-c2c(-c3ccc(F)c(O)c3)nc3occn23)n1)c1ccccc1 answer_label=inactive
compound=COc1cc(/C=C/C(=O)c2cccc(Nc3nc(Nc4ccccc4)nc(Nc4ccccc4)n3)c2)cc(OC)c1OC answer_label=active
compound=COc1cc(-c2cc(-c3ccc(N(C)C)cc3)nc(N3CCC(O)CC3)c2C#N)cc(OC)c1OC answer_label=inactive
compound=O=C(COc1ccc(-c2nc3ccccc3[nH]2)cc1)N=Nc1c(O)[nH]c2ccc(Cl)cc12 answer_label=inactive
compound=O=C1c2cccc(NCCN=Cc3cc(O)ccc3O)c2C(=O)c2c(NCCN=Cc3cc(O)ccc3O)cccc21 answer_label=active
compound=CC(C)CCC[C@@H](C)[C@H]1CC[C@H]2[C@@H]3CC=C4C[C@@H](C(C(=O)O)C(=O)O)CC[C@]4(C)[C@H]3CC[C@]12C answer_label=active
compound=CN(C)CCCn1c2c(c3ncccc3c1=O)C(=O)c1ccccc1-2 answer_label=inactive
compound=O=C(CSc1nc2ccc([N+](=O)[O-])cc2[nH]1)Nc1cccc(C(F)(F)F)c1 answer_label=inactive
compound=COc1cc(-c2nc3cc(Cl)c(Cl)cc3[nH]2)ccc1OCC(=O)N=Nc1c(O)[nH]c2ccc([N+](=O)[O-])cc12 answer_label=inactive
compound=CC(C)=NNc1ccccn1 answer_label=inactive
compound=CCCCC[C@@H]1Cc2cc(O)c(C(=O)O)c3c2[C@H](C[C@]2(OC[C@@H](CC(=O)[C@@](C)(CC)C(=O)OC)[C@@H]2C)O3)O1 answer_label=inactive
compound=Cc1ccc2c(n1)C(=O)c1[nH]c3ccccc3c1C2=O answer_label=inactive
